- Target: HMG-CoA reductase (Homo sapiens (Human))
- Sequence (P04035 340-888): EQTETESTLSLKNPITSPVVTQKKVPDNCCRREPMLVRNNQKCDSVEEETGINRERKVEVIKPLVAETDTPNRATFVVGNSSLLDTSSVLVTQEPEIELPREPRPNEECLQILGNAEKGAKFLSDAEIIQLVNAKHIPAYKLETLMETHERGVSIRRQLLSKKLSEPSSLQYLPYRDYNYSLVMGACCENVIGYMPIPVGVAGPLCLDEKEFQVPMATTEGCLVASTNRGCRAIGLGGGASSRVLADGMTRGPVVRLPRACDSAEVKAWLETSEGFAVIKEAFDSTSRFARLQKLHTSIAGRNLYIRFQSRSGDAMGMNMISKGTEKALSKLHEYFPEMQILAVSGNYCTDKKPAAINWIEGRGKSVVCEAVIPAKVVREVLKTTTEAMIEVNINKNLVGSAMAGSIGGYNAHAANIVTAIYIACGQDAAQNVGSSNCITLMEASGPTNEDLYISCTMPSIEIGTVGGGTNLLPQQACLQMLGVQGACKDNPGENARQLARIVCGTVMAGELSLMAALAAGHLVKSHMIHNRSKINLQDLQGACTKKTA
pIC50: −log10 of the molar value. Counter-ions that a name gives are not always drawn.
Recorded endpoint: pIC50

                                   molecule  relation_sign  readout_value
0  CC(C)c1nc(N(C)S(C)(=O)=O)nc(-c2ccc(F)cc2)c1/C=C/[C@@H](O)C[C@@H](O)CC(=O)O [Rosuvastatin calcium salt]              =           8.40
1  COC1C[C@H](OC(=O)c2cccnc2)C[C@@H](/C=C/c2c(-c3ccc(F)cc3)nc(N(C)S(C)(=O)=O)nc2C(C)C)O1 (some centres unmarked)              >           9.00
